Hey, just so you know, these numbers are from patent US20090270443A1.

Each entry below carries its recorded melting point.

Sample records with melting point:
Cc1nc(N)c2nc(C)n(NCCCNS(C)(=O)=O)c2c1C: 215 to 217 °C
CCOCc1nc2c(N)nc(C)c(C)c2n1NCCCS(C)(=O)=O: 150 to 155 °C
CCOCc1nc2c(N)nc(C)c(C)c2n1NC1CCC1: 139 to 141 °C
Cc1nc(N)c2ncn(N(C)C)c2c1C: 205 to 207 °C

Consider the molecule CCOCc1nc2c(N)nc(C)c(C)c2n1NC1CCOCC1 . State its measured melting point. 120 to 122 °C

Entry CCc1nc2c(N)nc(C)c(C)c2n1NC1CCCCC1 needs its melting point filled in; supply it. 190 to 192 °C

# return recorded melting point for input Cc1nc(N)c2nc(CO)n(NC3CCC3)c2c1C 211 to 213 °C

Look up and state reported melting point for Cc1nc(N)c2nc(CCO)n(NC3CCOCC3)c2c1C 190 to 192 °C

Report melting point for CCOCc1nc2cnc3cccnc3c2n1NC1CCOCC1 130 to 133 °C

Look up melting point of CCOCc1nc2cnc(C)c(C)c2n1NC1CCOCC1 and report it. 94 to 97 °C

====

The following compounds are listed with their measured melting point values.

Here is how some compounds turned out for melting point.
Nc1nc2cccnc2c2c1nc(CO)n2NCc1ccccc1: 237 to 239 °C
Cc1nc(N)c2nc(CO)n(NCc3cccnc3)c2c1C: 258 to 260 °C

Indicate its recorded melting point; the compound in question is Cc1nc(N)c2nc(C)n(NC3CCOCC3)c2c1C 240 to 242 °C

// Input: CCOCc1nc2c(N)nc(C)c(C)c2n1NCCCNS(C)(=O)=O . Output its melting point only. 147 to 149 °C

Supply melting point value. Item: Cc1nc(N)c2nc(C)n(NC3CCCCC3)c2c1C 242 to 244 °C

Could you please provide reported melting point for Cc1nc(N)c2nc(CO)n(NC3CCCC3)c2c1C ? Thanks! 254 to 256 °C

# return recorded melting point for input Cc1nc(N)c2nc(C)n(NC(C)C)c2c1C 203 to 205 °C

Identify the reported melting point for the following entry. CCOCc1nc2c(N)ncc(C)c2n1NC(C)C 119 to 121 °C
